- assay-target: Jak2 (UniProt O60674)
- procedure-text: pIC50, kinobeads binding competition
- condition-info: cell material: Lysate mix
endpoint-name: pIC50
// no unit, no text: just the number

C#CCNC(=O)c1cc(Nc2cc(C)[nH]n2)nc(N2CCN(Cc3ccc(S(=O)(=O)F)cc3)CC2)n1 ... 4.93
CCNC(=O)c1cc(Nc2cc(C3CC3)[nH]n2)nc(N2CCN(Cc3ccc(S(=O)(=O)F)cc3)CC2)n1 ... 4.73
C#CCNC(=O)c1cc(Nc2cc(C3CC3)[nH]n2)nc(N2CCN(Cc3ccc(S(=O)(=O)F)cc3)CC2)n1 ... 4.9

Shifting focus to the compound that follows.
Problem: For the record "CCNC(=O)c1cc(Nc2cc(C)[nH]n2)nc(N2CCN(Cc3ccc(S(=O)(=O)F)cc3)CC2)n1" , what value of pIC50 is listed for Jak2 (UniProt O60674)?
Solution: 4.98

###

Measured pIC50, listed per entry.
- assay-target: UniProt Q00537
- Sequence (Q00537 whole entry, looked up): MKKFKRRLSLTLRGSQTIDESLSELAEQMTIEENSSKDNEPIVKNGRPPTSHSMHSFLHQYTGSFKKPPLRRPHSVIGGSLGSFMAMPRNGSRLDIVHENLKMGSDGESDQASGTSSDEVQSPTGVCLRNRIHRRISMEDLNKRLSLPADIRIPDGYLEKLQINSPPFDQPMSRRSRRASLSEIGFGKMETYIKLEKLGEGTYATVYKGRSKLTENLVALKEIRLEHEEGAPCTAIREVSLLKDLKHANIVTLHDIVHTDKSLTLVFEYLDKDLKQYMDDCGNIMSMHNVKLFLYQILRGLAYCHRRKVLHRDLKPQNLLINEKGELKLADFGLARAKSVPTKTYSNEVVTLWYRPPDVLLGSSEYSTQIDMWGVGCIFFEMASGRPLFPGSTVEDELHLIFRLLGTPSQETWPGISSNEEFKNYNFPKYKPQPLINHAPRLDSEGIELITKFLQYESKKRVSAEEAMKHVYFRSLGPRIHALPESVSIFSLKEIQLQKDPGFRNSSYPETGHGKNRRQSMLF
- procedure-text: pIC50, kinobeads binding competition
- condition-info: cell material: Lysate mix

Solved cases below.
C#CCNC(=O)c1cc(Nc2cc(C3CC3)[nH]n2)nc(N2CCN(Cc3ccc(S(=O)(=O)F)cc3)CC2)n1 ... 5.7
CCNC(=O)c1cc(Nc2cc(C3CC3)[nH]n2)nc(N2CCN(Cc3ccc(S(=O)(=O)F)cc3)CC2)n1 ... 5.52

Problem: Given the compound "C#CCNC(=O)c1cc(Nc2cc(C)[nH]n2)nc(N2CCN(Cc3ccc(S(=O)(=O)F)cc3)CC2)n1" , what is its reported pIC50?
Solution: < 4.52

Problem: Do the same for O=C(NCCNC(=O)c1cc(Nc2cc(C3CC3)[nH]n2)nc(N2CCN(Cc3ccc(S(=O)(=O)F)cc3)CC2)n1)OC1CC/C=C/CCC1 (stereo not given) please
Solution: < 4.52

Problem: Next entry: Cc1cc(Nc2cc(C(=O)NCCNC(=O)OC3CC/C=C/CCC3)nc(N3CCN(Cc4ccc(S(=O)(=O)F)cc4)CC3)n2)n[nH]1 (stereo not given)
Solution: < 4.52

###

- assay-target: UniProt Q9Y2H1
- Sequence (Q9Y2H1 whole entry, looked up): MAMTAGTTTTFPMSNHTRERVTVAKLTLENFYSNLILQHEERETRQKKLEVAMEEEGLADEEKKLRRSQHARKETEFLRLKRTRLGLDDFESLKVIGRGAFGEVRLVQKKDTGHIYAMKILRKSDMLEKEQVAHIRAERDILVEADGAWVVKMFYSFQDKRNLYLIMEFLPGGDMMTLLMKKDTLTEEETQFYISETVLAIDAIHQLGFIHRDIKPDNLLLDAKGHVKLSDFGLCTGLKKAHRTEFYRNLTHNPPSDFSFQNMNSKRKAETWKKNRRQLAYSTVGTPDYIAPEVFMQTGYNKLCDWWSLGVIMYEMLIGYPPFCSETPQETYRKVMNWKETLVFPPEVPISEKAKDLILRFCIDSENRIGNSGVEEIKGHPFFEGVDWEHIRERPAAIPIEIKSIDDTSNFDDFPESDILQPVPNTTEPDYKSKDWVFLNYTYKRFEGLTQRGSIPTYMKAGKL
- procedure-text: pIC50, kinobeads binding competition
- condition-info: cell material: Lysate mix
endpoint-name: pIC50

Take a look at these entries with their results.
O=C(NCCNC(=O)c1cc(Nc2cc(C3CC3)[nH]n2)nc(N2CCN(Cc3ccc(S(=O)(=O)F)cc3)CC2)n1)OC1CC/C=C/CCC1 (centres undefined) ... < 4.52
Cc1cc(Nc2cc(C(=O)NCCNC(=O)OC3CC/C=C/CCC3)nc(N3CCN(Cc4ccc(S(=O)(=O)F)cc4)CC3)n2)n[nH]1 (centres undefined) ... < 4.52
C#CCNC(=O)c1cc(Nc2cc(C)[nH]n2)nc(N2CCN(Cc3ccc(S(=O)(=O)F)cc3)CC2)n1 ... 4.77

Problem: Give its pIC50 value. Item: "CCNC(=O)c1cc(Nc2cc(C)[nH]n2)nc(N2CCN(Cc3ccc(S(=O)(=O)F)cc3)CC2)n1"
Solution: < 4.52

###

- assay-target: UniProt P06493
- Sequence (P06493 whole entry, looked up): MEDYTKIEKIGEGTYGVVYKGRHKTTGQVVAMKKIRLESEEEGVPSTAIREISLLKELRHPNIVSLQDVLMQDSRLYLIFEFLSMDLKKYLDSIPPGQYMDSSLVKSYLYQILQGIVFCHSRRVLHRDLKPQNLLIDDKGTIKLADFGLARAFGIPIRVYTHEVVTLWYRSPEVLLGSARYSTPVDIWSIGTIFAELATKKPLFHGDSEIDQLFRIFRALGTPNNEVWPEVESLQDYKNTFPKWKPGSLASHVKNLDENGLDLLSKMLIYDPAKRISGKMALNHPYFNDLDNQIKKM
- procedure-text: pIC50, kinobeads binding competition
- condition-info: cell material: Lysate mix
endpoint-name: pIC50

// solved cases for pIC50 follow
CCNC(=O)c1cc(Nc2cc(C3CC3)[nH]n2)nc(N2CCN(Cc3ccc(S(=O)(=O)F)cc3)CC2)n1 ... 5.5
CCNC(=O)c1cc(Nc2cc(C)[nH]n2)nc(N2CCN(Cc3ccc(S(=O)(=O)F)cc3)CC2)n1 ... < 4.52
O=C(NCCNC(=O)c1cc(Nc2cc(C3CC3)[nH]n2)nc(N2CCN(Cc3ccc(S(=O)(=O)F)cc3)CC2)n1)OC1CC/C=C/CCC1 (stereo unspecified) ... < 4.52
C#CCNC(=O)c1cc(Nc2cc(C3CC3)[nH]n2)nc(N2CCN(Cc3ccc(S(=O)(=O)F)cc3)CC2)n1 ... 5.7
C#CCNC(=O)c1cc(Nc2cc(C)[nH]n2)nc(N2CCN(Cc3ccc(S(=O)(=O)F)cc3)CC2)n1 ... < 4.52

Now, please, on to the next compound.
Problem: Tell me reported pIC50 for Cc1cc(Nc2cc(C(=O)NCCNC(=O)OC3CC/C=C/CCC3)nc(N3CCN(Cc4ccc(S(=O)(=O)F)cc4)CC3)n2)n[nH]1 (stereo unspecified) , tested with UniProt P06493.
Solution: < 4.52

###

- assay-target: UniProt Q9Y6M4
- Sequence (Q9Y6M4 whole entry, looked up): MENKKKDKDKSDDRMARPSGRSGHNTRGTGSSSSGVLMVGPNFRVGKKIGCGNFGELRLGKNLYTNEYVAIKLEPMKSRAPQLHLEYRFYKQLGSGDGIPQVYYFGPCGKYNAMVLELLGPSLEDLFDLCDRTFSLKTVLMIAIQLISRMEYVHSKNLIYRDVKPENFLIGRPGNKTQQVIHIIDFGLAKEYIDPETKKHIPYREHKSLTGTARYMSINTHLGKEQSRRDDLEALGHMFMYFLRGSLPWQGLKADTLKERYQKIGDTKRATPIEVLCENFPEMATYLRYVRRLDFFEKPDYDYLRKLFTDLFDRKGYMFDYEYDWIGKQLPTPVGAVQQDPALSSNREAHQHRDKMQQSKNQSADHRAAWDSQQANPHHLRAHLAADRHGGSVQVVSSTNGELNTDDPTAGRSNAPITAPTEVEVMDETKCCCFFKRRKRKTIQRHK
- procedure-text: pIC50, kinobeads binding competition
- condition-info: cell material: Lysate mix
Listed below: pIC50 values for each entry.

// solved cases for pIC50 follow
CCNC(=O)c1cc(Nc2cc(C3CC3)[nH]n2)nc(N2CCN(Cc3ccc(S(=O)(=O)F)cc3)CC2)n1 ... 4.89
C#CCNC(=O)c1cc(Nc2cc(C3CC3)[nH]n2)nc(N2CCN(Cc3ccc(S(=O)(=O)F)cc3)CC2)n1 ... < 4.52
CCNC(=O)c1cc(Nc2cc(C)[nH]n2)nc(N2CCN(Cc3ccc(S(=O)(=O)F)cc3)CC2)n1 ... < 4.52

Next compound, pIC50 to be filled in.
Problem: Which pIC50 is listed for O=C(NCCNC(=O)c1cc(Nc2cc(C3CC3)[nH]n2)nc(N2CCN(Cc3ccc(S(=O)(=O)F)cc3)CC2)n1)OC1CC/C=C/CCC1 (centres undefined) ?
Solution: < 4.52

###

- assay-target: UniProt Q13163
- Sequence (whole entry): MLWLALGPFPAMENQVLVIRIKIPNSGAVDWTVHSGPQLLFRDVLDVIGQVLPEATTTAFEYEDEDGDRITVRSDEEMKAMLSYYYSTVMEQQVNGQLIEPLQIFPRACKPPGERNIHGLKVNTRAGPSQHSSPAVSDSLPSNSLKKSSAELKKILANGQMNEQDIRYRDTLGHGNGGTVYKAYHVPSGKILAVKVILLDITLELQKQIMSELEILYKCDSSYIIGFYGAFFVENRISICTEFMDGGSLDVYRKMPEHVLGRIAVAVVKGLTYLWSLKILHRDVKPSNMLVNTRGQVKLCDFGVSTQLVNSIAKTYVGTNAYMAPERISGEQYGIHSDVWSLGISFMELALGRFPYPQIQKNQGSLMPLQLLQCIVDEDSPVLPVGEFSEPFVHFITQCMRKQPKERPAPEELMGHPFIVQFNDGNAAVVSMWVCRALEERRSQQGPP
- procedure-text: pIC50, kinobeads binding competition
- condition-info: cell material: Lysate mix
endpoint-name: pIC50
Answer with the value's number alone.

C#CCNC(=O)c1cc(Nc2cc(C3CC3)[nH]n2)nc(N2CCN(Cc3ccc(S(=O)(=O)F)cc3)CC2)n1 ... 5.42
CCNC(=O)c1cc(Nc2cc(C)[nH]n2)nc(N2CCN(Cc3ccc(S(=O)(=O)F)cc3)CC2)n1 ... 4.73
C#CCNC(=O)c1cc(Nc2cc(C)[nH]n2)nc(N2CCN(Cc3ccc(S(=O)(=O)F)cc3)CC2)n1 ... 4.64

Problem: Form entry - test system: UniProt Q13163; read-out: pIC50; compound: "CCNC(=O)c1cc(Nc2cc(C3CC3)[nH]n2)nc(N2CCN(Cc3ccc(S(=O)(=O)F)cc3)CC2)n1"
Solution: 5.28

###

- assay-target: UniProt:P42684
- Sequence (P42684 whole entry): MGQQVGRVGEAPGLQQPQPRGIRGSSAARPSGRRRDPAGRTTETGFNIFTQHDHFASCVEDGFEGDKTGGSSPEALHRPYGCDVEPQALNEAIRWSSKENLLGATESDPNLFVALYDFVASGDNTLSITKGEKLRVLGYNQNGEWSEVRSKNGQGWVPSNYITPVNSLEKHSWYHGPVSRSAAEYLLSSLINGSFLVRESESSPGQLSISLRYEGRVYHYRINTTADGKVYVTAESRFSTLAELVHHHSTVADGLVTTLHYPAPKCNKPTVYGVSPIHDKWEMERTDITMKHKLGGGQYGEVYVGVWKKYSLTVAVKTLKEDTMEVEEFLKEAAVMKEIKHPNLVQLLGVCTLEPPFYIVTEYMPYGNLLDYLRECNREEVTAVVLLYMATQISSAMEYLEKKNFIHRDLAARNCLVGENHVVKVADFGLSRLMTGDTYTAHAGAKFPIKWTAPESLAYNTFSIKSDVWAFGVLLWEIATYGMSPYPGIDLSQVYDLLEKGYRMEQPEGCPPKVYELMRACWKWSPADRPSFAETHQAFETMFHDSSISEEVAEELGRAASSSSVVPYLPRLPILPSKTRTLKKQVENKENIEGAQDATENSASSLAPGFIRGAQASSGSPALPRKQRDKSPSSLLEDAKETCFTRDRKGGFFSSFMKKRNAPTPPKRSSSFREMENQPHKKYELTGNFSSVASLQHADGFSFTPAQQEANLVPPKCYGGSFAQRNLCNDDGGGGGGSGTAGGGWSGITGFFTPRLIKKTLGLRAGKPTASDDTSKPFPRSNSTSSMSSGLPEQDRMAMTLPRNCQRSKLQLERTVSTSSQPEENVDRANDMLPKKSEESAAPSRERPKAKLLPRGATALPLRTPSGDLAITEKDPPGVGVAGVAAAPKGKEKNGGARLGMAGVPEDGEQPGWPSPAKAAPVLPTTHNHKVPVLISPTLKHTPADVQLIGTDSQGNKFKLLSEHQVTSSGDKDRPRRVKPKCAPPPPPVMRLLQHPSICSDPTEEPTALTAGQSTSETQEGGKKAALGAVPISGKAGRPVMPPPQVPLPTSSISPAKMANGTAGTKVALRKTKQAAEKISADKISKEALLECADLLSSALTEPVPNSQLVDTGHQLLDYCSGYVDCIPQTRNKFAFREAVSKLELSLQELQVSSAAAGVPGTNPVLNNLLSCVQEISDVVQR
- procedure-text: pIC50, kinobeads binding competition
- condition-info: cell material: Lysate mix
In this section we review reported pIC50 values for a set of molecules.
No unit in the answer, only the number.

C#CCNC(=O)c1cc(Nc2cc(C3CC3)[nH]n2)nc(N2CCN(Cc3ccc(S(=O)(=O)F)cc3)CC2)n1 ... 5.39

Problem: Looking for the measured pIC50 of "C#CCNC(=O)c1cc(Nc2cc(C)[nH]n2)nc(N2CCN(Cc3ccc(S(=O)(=O)F)cc3)CC2)n1" , can you help?
Solution: 4.64

Problem: Okay, and "CCNC(=O)c1cc(Nc2cc(C)[nH]n2)nc(N2CCN(Cc3ccc(S(=O)(=O)F)cc3)CC2)n1" ?
Solution: 4.81

Problem: Another molecule to check: "CCNC(=O)c1cc(Nc2cc(C3CC3)[nH]n2)nc(N2CCN(Cc3ccc(S(=O)(=O)F)cc3)CC2)n1"
Solution: 5.35

###

Here the recorded pIC50 is given for each entry.
- assay-target: UniProt Q5VT25
- Sequence (Q5VT25 whole entry): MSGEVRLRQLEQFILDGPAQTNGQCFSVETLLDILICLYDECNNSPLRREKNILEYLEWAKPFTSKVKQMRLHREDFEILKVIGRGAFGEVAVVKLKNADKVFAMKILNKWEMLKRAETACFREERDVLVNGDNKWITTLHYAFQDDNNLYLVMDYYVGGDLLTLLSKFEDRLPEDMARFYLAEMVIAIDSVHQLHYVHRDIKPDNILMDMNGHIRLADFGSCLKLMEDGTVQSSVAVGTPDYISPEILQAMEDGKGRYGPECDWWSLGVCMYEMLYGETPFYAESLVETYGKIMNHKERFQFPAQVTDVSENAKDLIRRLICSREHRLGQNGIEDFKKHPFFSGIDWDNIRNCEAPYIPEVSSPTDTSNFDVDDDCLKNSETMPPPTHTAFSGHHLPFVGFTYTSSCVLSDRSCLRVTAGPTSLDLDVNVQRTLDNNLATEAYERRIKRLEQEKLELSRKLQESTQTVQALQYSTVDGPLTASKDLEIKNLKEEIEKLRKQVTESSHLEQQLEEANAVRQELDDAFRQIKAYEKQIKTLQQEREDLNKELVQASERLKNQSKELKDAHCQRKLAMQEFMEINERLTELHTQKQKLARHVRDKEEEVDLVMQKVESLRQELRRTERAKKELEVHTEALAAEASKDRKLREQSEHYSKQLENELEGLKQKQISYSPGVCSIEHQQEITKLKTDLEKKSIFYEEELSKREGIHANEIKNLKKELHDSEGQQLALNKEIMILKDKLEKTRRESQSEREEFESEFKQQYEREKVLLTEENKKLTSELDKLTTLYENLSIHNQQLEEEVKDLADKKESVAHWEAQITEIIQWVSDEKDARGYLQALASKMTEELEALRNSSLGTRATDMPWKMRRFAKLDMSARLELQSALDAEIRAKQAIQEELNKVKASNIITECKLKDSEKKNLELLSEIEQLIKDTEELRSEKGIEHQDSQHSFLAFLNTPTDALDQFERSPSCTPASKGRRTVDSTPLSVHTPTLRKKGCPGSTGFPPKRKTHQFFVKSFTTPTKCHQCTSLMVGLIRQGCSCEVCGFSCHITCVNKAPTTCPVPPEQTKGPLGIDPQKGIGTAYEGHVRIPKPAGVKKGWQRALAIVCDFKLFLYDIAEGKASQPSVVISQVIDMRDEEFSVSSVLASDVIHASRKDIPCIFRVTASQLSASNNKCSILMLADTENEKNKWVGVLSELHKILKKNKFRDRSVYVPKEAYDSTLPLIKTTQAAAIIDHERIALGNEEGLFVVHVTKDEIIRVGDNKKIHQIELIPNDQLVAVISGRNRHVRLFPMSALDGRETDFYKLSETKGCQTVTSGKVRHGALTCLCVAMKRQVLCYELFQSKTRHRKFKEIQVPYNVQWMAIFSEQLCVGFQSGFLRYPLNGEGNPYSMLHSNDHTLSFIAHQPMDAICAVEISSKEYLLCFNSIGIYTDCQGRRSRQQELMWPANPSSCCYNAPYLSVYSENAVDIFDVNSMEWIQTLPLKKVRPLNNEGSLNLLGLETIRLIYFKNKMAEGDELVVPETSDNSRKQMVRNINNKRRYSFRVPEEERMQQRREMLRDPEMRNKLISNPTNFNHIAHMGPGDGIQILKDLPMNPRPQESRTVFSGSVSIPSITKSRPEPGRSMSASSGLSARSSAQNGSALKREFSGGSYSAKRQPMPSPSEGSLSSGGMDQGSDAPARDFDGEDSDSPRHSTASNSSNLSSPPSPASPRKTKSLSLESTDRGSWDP
- procedure-text: pIC50, kinobeads binding competition
- condition-info: cell material: Lysate mix

CCNC(=O)c1cc(Nc2cc(C)[nH]n2)nc(N2CCN(Cc3ccc(S(=O)(=O)F)cc3)CC2)n1 ... < 4.52
Cc1cc(Nc2cc(C(=O)NCCNC(=O)OC3CC/C=C/CCC3)nc(N3CCN(Cc4ccc(S(=O)(=O)F)cc4)CC3)n2)n[nH]1 (stereo unspecified) ... < 4.52
CCNC(=O)c1cc(Nc2cc(C3CC3)[nH]n2)nc(N2CCN(Cc3ccc(S(=O)(=O)F)cc3)CC2)n1 ... < 4.52
O=C(NCCNC(=O)c1cc(Nc2cc(C3CC3)[nH]n2)nc(N2CCN(Cc3ccc(S(=O)(=O)F)cc3)CC2)n1)OC1CC/C=C/CCC1 (stereo unspecified) ... < 4.52
C#CCNC(=O)c1cc(Nc2cc(C)[nH]n2)nc(N2CCN(Cc3ccc(S(=O)(=O)F)cc3)CC2)n1 ... < 4.52

Moving on to another compound below.
Problem: Need pIC50, item "C#CCNC(=O)c1cc(Nc2cc(C3CC3)[nH]n2)nc(N2CCN(Cc3ccc(S(=O)(=O)F)cc3)CC2)n1"
Solution: < 4.52
